- Tested on: barnyardgrass
- measurement-protocol: Test A pre-/postemergence greenhouse test
- Assay type: in vivo, Echinochloa crus-galli
- experimental-conditions: Postemergence, 125 g ai/ha; 0 to 100 scale where 0 is no effect and 100 is complete control
Labelling field: enter T if recorded Plant response rating, Barnyardgrass is less than 40. Enter F if it equals or exceeds that cut-off.

Does Cn1nc(C(F)(F)F)c(CS(=O)(=O)c2ccc(Cl)c[n+]2[O-])c1OCC(F)(F)C(F)(F)F [Compound 97] have Plant response rating, Barnyardgrass strictly under 40?
T

Threshold test, Plant response rating, Barnyardgrass < 40: Cn1nc(C(F)(F)F)c(C[S+]([O-])c2ccc(F)c[n+]2[O-])c1OCC(F)(F)F (stereo not shown) [Compound 67]
F

Problem: For the molecule CCCc1cc[n+]([O-])c([S+]([O-])Cc2c(C(F)(F)F)nn(C)c2OC(F)F)c1 (stereo not shown) [Compound 116] , is Plant response rating, Barnyardgrass under 40?
F

Determine if CC(C)c1cc[n+]([O-])c([S+]([O-])Cc2c(C(F)(F)F)nn(C)c2OCC(F)(F)F)c1 (stereo not shown) [Compound 104] shows Plant response rating, Barnyardgrass strictly lower than 40.
F

I wonder whether CCn1nc(C(F)(F)F)c(C[S+]([O-])c2cc(C)cc[n+]2[O-])c1OCC(F)(F)F (racemic) [Compound 66] has Plant response rating, Barnyardgrass below 40. Can you tell?
F

----------
- Test system: rice
- measurement-protocol: Test C flooded paddy test
- Type: in vivo, Oryza sativa
- experimental-conditions: Flood, 250 g ai/ha; scale 0 to 100, 0 no effect, 100 complete control; 13 to 15 days
fulfilled means recorded Plant response rating, Rice is 30 or above; not fulfilled means it is below 30.

Determine whether this compound has Plant response rating, Rice no lower than 30: `CC(C)c1cc[n+]([O-])c(S(=O)(=O)Cc2c(C(F)(F)F)nn(C)c2OC(F)F)c1`
not fulfilled

Determine whether measured Plant response rating, Rice meets or exceeds 30 for Cn1nc(C(F)(F)F)c(C[S+]([O-])c2c(F)ccc[n+]2[O-])c1Cl (stereo not shown)
not fulfilled

Reported Plant response rating, Rice at or above 30? `Cc1cc(S(=O)(=O)Cc2c(C(F)(F)F)nn(C)c2OCC(F)(F)F)[n+]([O-])cc1Cl`
fulfilled

# check: Plant response rating, Rice of `Cn1nc(C(F)(F)C(F)(F)F)c(CS(=O)(=O)c2cccc[n+]2[O-])c1OCC(F)(F)F` is greater than or equal to 30
fulfilled

Could you tell me if the measured Plant response rating, Rice of Cc1cc[n+]([O-])c(S(=O)(=O)C(Cl)c2c(C(F)(F)F)nn(C)c2OCC(F)(F)F)c1 (racemic) reaches 30 or more?
fulfilled

Identify whether the reported Plant response rating, Rice of the following compound is 30 or greater: CCc1cc[n+]([O-])c([S+]([O-])Cc2c(C(F)(F)F)nn(C)c2OCC(F)(F)F)c1 (stereo not shown)
fulfilled

Form field: Plant response rating, Rice at least 30? Entry: Cc1cc[n+]([O-])c([S+]([O-])Cc2c(C(F)(F)F)nn(CC(F)(F)F)c2Cl)c1 (stereo not shown)
not fulfilled

Kindly determine if Plant response rating, Rice recorded for Cn1nc(C(F)(F)F)c(C[S+]([O-])c2ccc(Cl)c[n+]2[O-])c1OCC(F)F (stereo not shown) is above or exactly 30.
fulfilled

Would you say `Cn1nc(C(F)(F)F)c(CS(=O)(=O)c2cc(C(C)(C)C)cc[n+]2[O-])c1OCC(F)(F)F` shows Plant response rating, Rice at minimum 30?
not fulfilled

Given Cn1nc(C(F)(F)F)c(C[S+]([O-])c2cc(Cl)cc[n+]2[O-])c1Cl (racemic) , state whether its Plant response rating, Rice is at least 30.
fulfilled

Entry `CCn1nc(C(F)(F)F)c(CS(=O)(=O)c2cccc[n+]2[O-])c1OCC(F)(F)F` : is its Plant response rating, Rice no less than 30?
fulfilled

Is it the case that `CCOc1ccc(S(=O)(=O)Cc2c(C(F)(F)F)nn(C)c2OC(F)F)[n+]([O-])c1` has Plant response rating, Rice reaching or exceeding 30?
not fulfilled

----------
- Test system: Surinam grass
- measurement-protocol: Test C pre-/postemergence test
- Format: in vivo, Brachiaria decumbens
- experimental-conditions: preemergence, 125 g ai/ha; scale 0 (no effect) to 100 (complete control)
Record form. Attribute: Surinam Grass plant response rating. Fill in for each entry.

Which value of Surinam Grass plant response rating has been reported for `Cn1nc(C(F)(F)F)c(CS(=O)(=O)c2cccc[n+]2[O-])c1Cl` in the records?
85

Look up Surinam Grass plant response rating: CC(c1c(C(F)(F)F)nn(C)c1OC(F)F)S(=O)(=O)c1cccc[n+]1[O-] (stereo not shown)
70

What Surinam Grass plant response rating value was documented for this compound, Cn1nc(C(F)(F)F)c(C(Cl)S(=O)(=O)c2cccc[n+]2[O-])c1Cl (stereo not shown) ?
30

Quick one: Surinam Grass plant response rating of `Cc1cc[n+]([O-])c(S(=O)(=O)Cc2c(C(F)(F)F)nn(C)c2OC(F)F)c1` ?
100

----------
- Tested on: bermudagrass
- measurement-protocol: Test C pre-/postemergence test
- Type: in vivo, Cynodon dactylon
- experimental-conditions: 31 g ai/ha, Preemergence; scale 0 to 100
quantity-name: Bermudagrass plant response rating

Recall the recorded Bermudagrass plant response rating for `Cn1nc(C(F)(F)F)c(CS(=O)(=O)c2cccc[n+]2[O-])c1OC(F)F` with bermudagrass and state it.
100

For bermudagrass, provide Bermudagrass plant response rating of Cc1cc[n+]([O-])c(S(=O)(=O)C(C)c2c(C(F)(F)F)nn(C)c2Cl)c1 (racemic) please.
80

# value lookup — system bermudagrass, readout Bermudagrass plant response rating, item Cn1nc(C(F)(F)F)c(C[S+]([O-])c2cccc[n+]2[O-])c1OC(F)F (centres unmarked)
80

I'm curious: which Bermudagrass plant response rating was measured for CC(c1c(C(F)(F)F)nn(C)c1Cl)S(=O)(=O)c1cccc[n+]1[O-] (centres unmarked) tested on bermudagrass?
95

Bermudagrass plant response rating of Cc1cc[n+]([O-])c([S+]([O-])Cc2c(C(F)(F)F)nn(C)c2OC(F)F)c1 (centres unmarked) on bermudagrass?
85

----------
- System: giant foxtail
- measurement-protocol: Test C pre-/postemergence test
- Type: in vivo, Setaria faberii
- experimental-conditions: Preemergence, 250 g ai/ha
quantity-name: Plant response rating (0 to 100), Foxtail, Giant
Could you respond with only the numeric value?

Looking for the measured Plant response rating (0 to 100), Foxtail, Giant of Cc1cc[n+]([O-])c(S(=O)(=O)C(C)c2c(C(F)(F)F)nn(C)c2OC(F)F)c1 (centres unmarked) , can you help?
100

GET /values?readout=Plant response rating (0 to 100), Foxtail, Giant&item= `Cc1cc[n+]([O-])c(S(=O)(=O)Cc2c(C(F)(F)F)nn(C)c2OC(F)F)c1`
100

Suppose we examine the compound Cn1nc(C(F)(F)F)c(C[S+]([O-])c2cc(C(F)(F)F)cc[n+]2[O-])c1Cl (racemic) ; what Plant response rating (0 to 100), Foxtail, Giant value has been reported?
50

# query: Plant response rating (0 to 100), Foxtail, Giant of entry Cc1cc[n+]([O-])c([S+]([O-])Cc2c(C(F)(F)F)nn(C)c2Cl)c1 (racemic)
100

# Plant response rating (0 to 100), Foxtail, Giant lookup, item `Cc1cc[n+]([O-])c(S(=O)(=O)Cc2c(C(F)(F)F)nn(C)c2Cl)c1`
100

----------
Field: Wheat plant response rating. Provide a value for each of the compounds that follow.
- Test system: wheat
- measurement-protocol: Test C pre-/postemergence test
- Type: in vivo, Triticum aestivum
- experimental-conditions: 62 g ai/ha, Preemergence; scale 0 to 100

What value of Wheat plant response rating on wheat does Cn1nc(C(F)(F)F)c(C[S+]([O-])c2ccc(Cl)c[n+]2[O-])c1OCC(F)F (centres unmarked) [Compound 85] have?
50

For the record Cn1nc(C(F)(F)F)c(C[S+]([O-])c2cc(C(C)(C)C)cc[n+]2[O-])c1OC(F)F (racemic) [Compound 24] , what value of Wheat plant response rating is listed for wheat?
40

Checklist item: Wheat plant response rating tested on wheat, entry Cn1nc(C(F)(F)F)c(C[S+]([O-])c2cccc[n+]2[O-])c1OCC(F)F (centres unmarked) [Compound 75] , value?
30

For wheat, provide Wheat plant response rating of Cn1nc(C(F)(F)F)c(C[S+]([O-])c2cc(Br)cc[n+]2[O-])c1Cl (racemic) [Compound 35] please.
25

# returns recorded Wheat plant response rating (system: wheat) for Cn1nc(C(F)(F)F)c(C[S+]([O-])c2ccc(F)c[n+]2[O-])c1OCC(F)(F)F (centres unmarked) [Compound 67]
98

Reported Wheat plant response rating for wheat, given CC(c1c(C(F)(F)F)nn(C)c1OC(F)F)S(=O)(=O)c1cc(C(C)(C)C)cc[n+]1[O-] (racemic) [Compound 26] ?
0

What measured Wheat plant response rating is associated with Cn1nc(C(F)(F)C(F)(F)F)c(C[S+]([O-])c2cccc[n+]2[O-])c1OCC(F)(F)F (centres unmarked) [Compound 79] on wheat?
10

# get_value(readout= Wheat plant response rating, system= wheat) for Cc1cc[n+]([O-])c(S(=O)(=O)Cc2c(C(F)(F)F)nn(C)c2OCC(F)(F)F)c1 [Compound 31]
30
